Target: human A2B receptors (Homo sapiens, UniProt P29275)
Sequence (P29275 1-332): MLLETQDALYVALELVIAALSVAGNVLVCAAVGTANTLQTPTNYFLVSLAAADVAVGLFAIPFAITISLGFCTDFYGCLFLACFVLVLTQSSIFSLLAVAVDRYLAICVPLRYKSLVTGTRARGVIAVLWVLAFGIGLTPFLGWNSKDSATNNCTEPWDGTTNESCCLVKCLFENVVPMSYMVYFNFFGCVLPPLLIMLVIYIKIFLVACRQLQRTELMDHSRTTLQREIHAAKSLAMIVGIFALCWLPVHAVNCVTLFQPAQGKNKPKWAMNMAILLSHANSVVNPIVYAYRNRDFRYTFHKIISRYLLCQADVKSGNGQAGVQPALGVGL
Assay: Inhibition of human A2B receptor in recombinant HEK293 cells, cAMP quantification (HTRF)
Conditions: read-out: A2B (Category)
pIC50: −log10 of the molar value.
# pIC50 annotations

{"columns": ["smiles", "tested target", "pIC50"],
 "data": [
  ["N#Cc1ccc(Nc2nn(CC(F)(F)F)c3cc(C(=O)N4CCCOCC4)ncc23)cc1", "human A2B receptors (Homo sapiens, UniProt P29275)", "> 6.00"],
  ["O=C(c1cc2c(cn1)c(Nc1cccc(F)n1)nn2CC(F)(F)F)N1CCCOCC1", "human A2B receptors (Homo sapiens, UniProt P29275)", "> 7.00"],
  ["O=C(c1cc2c(cn1)c(Nc1cccc(F)c1)nn2CC(F)(F)F)N1CC2CCC(C1)O2", "human A2B receptors (Homo sapiens, UniProt P29275)", "> 6.00"],
  ["O=C(c1cc2c(cn1)c(Nc1cccc(=O)[nH]1)nn2CC(F)(F)F)N1CCCOCC1", "human A2B receptors (Homo sapiens, UniProt P29275)", "> 6.00"],
  ["N#Cc1cccc(Nc2nn(CC(F)(F)F)c3cc(C(=O)N4CCCOCC4)ncc23)c1", "human A2B receptors (Homo sapiens, UniProt P29275)", "> 6.00"],
  ["O=C(c1cc2c(cn1)c(Nc1cnccn1)nn2CC(F)(F)F)N1CCCOCC1", "human A2B receptors (Homo sapiens, UniProt P29275)", "> 7.00"],
  ["O=C(c1cc2c(cn1)c(Nc1ccccn1)nn2CC(F)(F)F)N1[C@@H]2CC[C@H]1C[C@@H](O)C2", "human A2B receptors (Homo sapiens, UniProt P29275)", "> 7.00"],
  ["O=C(c1cc2c(cn1)c(Nc1ccc(F)cc1)nn2CC(F)(F)F)N1CCC(O)CC1", "human A2B receptors (Homo sapiens, UniProt P29275)", "> 7.00"]
]}

----------
Reported IC50 is given for each of the following compounds.
molecular target: human A2B receptors (Homo sapiens); construct: expressed in transfected cells; host or cells: HEK293; assay: Inhibition of human A2B receptor in recombinant HEK293 cells, cAMP quantification (HTRF); type: cell-based; settings: read-out: A2B (Category)

{"columns": ["smiles", "IC50"],
 "data": [
  ["CC1(O)CCN(C(=O)c2cc3c(cn2)c(Nc2ccccn2)nn3CC(F)(F)F)CC1", "< 100 nM"],
  ["O=C(c1cc2c(cn1)c(Nc1ccc(Cl)cc1)nn2CC(F)(F)F)N1CCCOCC1", "< 100 nM"],
  ["O=C(c1cc2c(cn1)c(Nc1cc(F)ccn1)nn2CC(F)(F)F)N1[C@@H]2CC[C@H]1C[C@@H](O)C2", "< 100 nM"],
  ["O=C(c1cc2c(cn1)c(Nc1ccc(F)cn1)nn2CC(F)(F)F)N1CCC[C@@H](F)C1", "< 1000 nM"],
  ["O=C(c1cc2c(cn1)c(Nc1ccc(F)cn1)nn2CC(F)(F)F)N1CCCOCC1", "< 100 nM"],
  ["[2H]C1([2H])COCCN(C(=O)c2cc3c(cn2)c(Nc2ccc(F)cc2)nn3CC(F)(F)F)C1", "< 1000 nM"],
  ["O=C(c1cc2c(cn1)c(Nc1ccc(F)c(Cl)c1)nn2CC(F)(F)F)N1CCCOCC1", "< 1000 nM"],
  ["CC1(O)CCN(C(=O)c2cc3c(cn2)c(Nc2cnccn2)nn3CC(F)(F)F)CC1", "< 1000 nM"]
]}
